Where these numbers come from: ChEMBL document CHEMBL4308867

TEST NAME: Total clearance in rat at 1 mg/kg, po administered as cassette dose
Assay type: ADME, organism-based
CONDITION: in vivo
QUANTITY NAME: CL/F (mL/min/kg)

>>> readout_value("CC(C)(NC(=O)C1=C(O)[C@@H]2Oc3c(O)ccc4c3[C@@]23CCN(CC2CC2)[C@H](C4)[C@]3(O)C1)C(=O)O")
28
>>> readout_value("CCC(=O)C1=C(O)[C@@H]2Oc3c(O)ccc4c3[C@@]23CCN(CC2CC2)[C@H](C4)[C@]3(O)C1")
313
>>> readout_value("O=C(Nc1ccccn1)C1=C(O)[C@@H]2Oc3c(O)ccc4c3[C@@]23CCN(CC2CC2)[C@H](C4)[C@]3(O)C1")
25
>>> readout_value("Cc1noc(C(C)(C)NC(=O)C2=C(O)[C@@H]3Oc4c(O)ccc5c4[C@@]34CCN(CC3CC3)[C@H](C5)[C@]4(O)C2)n1")
29
>>> readout_value("Cc1nc(N)nc2c1C[C@@]1(O)[C@H]3Cc4ccc(O)c5c4[C@@]1(CCN3CC1CC1)[C@H]2O5")
220
>>> readout_value("O=C(O)c1ccc2c3c([nH]c2c1)[C@@H]1Oc2c(O)ccc4c2[C@@]12CCN(CC1CC1)[C@H](C4)[C@]2(O)C3")
71.8
>>> readout_value("COC(=O)C1(NC(=O)C2=C(O)[C@@H]3Oc4c(O)ccc5c4[C@@]34CCN(CC3CC3)[C@H](C5)[C@]4(O)C2)CC1")
30

* * *

TARGET SYSTEM: UniProtKB P35372
Sequence (P35372 whole entry): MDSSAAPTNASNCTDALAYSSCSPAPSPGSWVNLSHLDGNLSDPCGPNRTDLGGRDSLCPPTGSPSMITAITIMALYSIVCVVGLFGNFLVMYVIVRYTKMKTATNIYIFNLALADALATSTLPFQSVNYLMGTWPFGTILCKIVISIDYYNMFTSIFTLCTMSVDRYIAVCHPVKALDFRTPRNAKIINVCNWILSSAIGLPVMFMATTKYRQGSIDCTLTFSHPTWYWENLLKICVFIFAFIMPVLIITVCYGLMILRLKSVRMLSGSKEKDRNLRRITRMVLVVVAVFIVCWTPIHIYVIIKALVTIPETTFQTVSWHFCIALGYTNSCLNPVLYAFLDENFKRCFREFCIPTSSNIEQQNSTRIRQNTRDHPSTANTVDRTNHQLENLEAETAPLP
TEST NAME: Antagonist activity at mu-opioid receptor (unknown origin) by [35S]-GTPgammaS binding assay
Type: functional
QUANTITY NAME: Ke (nM)

>>> readout_value("C[N@+]1(CC2CC2)CC[C@]23c4c5ccc(O)c4O[C@H]2C(=O)CC[C@@]3(O)[C@H]1C5.[Br-] [METHYLNALTREXONE BROMIDE]")
56
>>> readout_value("CC(C)(NC(=O)C1=C(O)[C@@H]2Oc3c(O)ccc4c3[C@@]23CCN(CC2CC2)[C@H](C4)[C@]3(O)C1)c1nc(-c2ccccc2)no1 [NALDEMEDINE]")
0.05
>>> readout_value("COC(=O)C1(NC(=O)C2=C(O)[C@@H]3Oc4c(O)ccc5c4[C@@]34CCN(CC3CC3)[C@H](C5)[C@]4(O)C2)CC1")
4.1
>>> readout_value("O=C(Nc1ccccc1)C1=C(O)[C@@H]2Oc3c(O)ccc4c3[C@@]23CCN(CC2CC2)[C@H](C4)[C@]3(O)C1")
3.2
>>> readout_value("CC(C)NC(=O)C1=C(O)[C@@H]2Oc3c(O)ccc4c3[C@@]23CCN(CC2CC2)[C@H](C4)[C@]3(O)C1")
6.2

* * *

TEST NAME: Oral bioavailability in rat at 1 mg/kg administered as cassette dose
Type: ADME, organism-based
CONDITION: in vivo
The compounds listed here are annotated with their bioavailability.
QUANTITY NAME: bioavailability (%)

>>> readout_value("Cc1noc(C(C)(C)NC(=O)C2=C(O)[C@@H]3Oc4c(O)ccc5c4[C@@]34CCN(CC3CC3)[C@H](C5)[C@]4(O)C2)n1")
11
>>> readout_value("O=C(Nc1ccc2cc[nH]c2c1)C1=C(O)[C@@H]2Oc3c(O)ccc4c3[C@@]23CCN(CC2CC2)[C@H](C4)[C@]3(O)C1")
13
>>> readout_value("N#Cc1ccc(NC(=O)C2=C(O)[C@@H]3Oc4c(O)ccc5c4[C@@]34CCN(CC3CC3)[C@H](C5)[C@]4(O)C2)cc1")
12
>>> readout_value("C[C@H](CO)NC(=O)C1=C(O)[C@@H]2Oc3c(O)ccc4c3[C@@]23CCN(CC2CC2)[C@H](C4)[C@]3(O)C1")
3.4
>>> readout_value("O=C(Nc1ccccc1)C1=C(O)[C@@H]2Oc3c(O)ccc4c3[C@@]23CCN(CC2CC2)[C@H](C4)[C@]3(O)C1")
57
>>> readout_value("CCC(=O)C1=C(O)[C@@H]2Oc3c(O)ccc4c3[C@@]23CCN(CC2CC2)[C@H](C4)[C@]3(O)C1")
6.4
>>> readout_value("O=C(O)c1ccc2c3c([nH]c2c1)[C@@H]1Oc2c(O)ccc4c2[C@@]12CCN(CC1CC1)[C@H](C4)[C@]2(O)C3")
0.1
